Molecular target: Beta-galactoside alpha-2,6-sialyltransferase 1 (Homo sapiens)
Assay: Inhibition of recombinant human N-terminal His-tagged ST6Gal-1 (44 to 406 residues) at 1 uM using CMP-Neu5Ac as substrate […] by UV/RP-HPLC method
Classify as follows. Reported inhibition greater than or equal to 70%: criterion met. Reported inhibition below: criterion not met.

>>> print(df.to_string())
                                   compound  assigned_category
0  Nc1ccn([C@@H]2O[C@H](COP(=O)(O)OC(CN3C(=O)c4ccccc4C3=O)P(=O)(O)O)[C@@H](O)[C@H]2O)c(=O)n1 (stereo in doubt; 5f-l)  criterion not met
1  Nc1ccn([C@@H]2O[C@H](COP(=O)(O)OC(CN3C(=O)c4ccccc4C3=O)P(=O)(O)O)[C@@H](O)[C@H]2O)c(=O)n1 (stereo in doubt; 5f-s)  criterion not met
2  Nc1ccn([C@@H]2O[C@H](COP(=O)(O)OC(CNC(=O)c3ccccc3)P(=O)(O)O)[C@@H](O)[C@H]2O)c(=O)n1 (stereo in doubt; 5a-s)      criterion met
3  Nc1ccn([C@@H]2O[C@H](COP(=O)(O)OC(C(=O)N3CCCCC3)P(=O)(O)O)[C@@H](O)[C@H]2O)c(=O)n1 (stereo in doubt; 5d-l)      criterion met
4  Nc1ccn([C@@H]2O[C@H](COP(=O)(O)OC(C(=O)N3CCCC3)P(=O)(O)O)[C@@H](O)[C@H]2O)c(=O)n1 (stereo in doubt; 5c-S)      criterion met
